Target: human melanocortin-4 receptor (hMC4R), wild type, N-terminal FLAG-tagged (human, UniProt P32245 1-332)
Sequence (P32245 whole entry): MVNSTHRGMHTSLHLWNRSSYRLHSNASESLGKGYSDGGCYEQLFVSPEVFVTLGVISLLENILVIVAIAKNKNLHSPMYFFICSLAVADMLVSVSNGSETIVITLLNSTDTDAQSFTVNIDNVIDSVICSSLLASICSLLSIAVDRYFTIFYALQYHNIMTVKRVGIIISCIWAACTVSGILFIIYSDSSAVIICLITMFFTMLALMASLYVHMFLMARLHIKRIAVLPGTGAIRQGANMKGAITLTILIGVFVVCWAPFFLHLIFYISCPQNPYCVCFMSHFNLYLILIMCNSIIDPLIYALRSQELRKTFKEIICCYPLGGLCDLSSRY
Assay: radioligand binding
pIC50: −log10 of the molar value. [ ]: non-standard residue; d: D form.
MEASUREMENT_TYPE: pIC50

{"BINDER": "cyclo(PRFFEAF[dP]) [MDE3–119-5c]", "EXPERIMENTAL_VALUE": 5.85}
{"BINDER": "RCVRLHESCLGQQVPCCDPCATCYCRFFNAFCYCRKLGTAMNPCSRT (domain or fragment, UniProt O00253 86-132, looked up) [human agouti-related protein hAGRP(86–132)]", "EXPERIMENTAL_VALUE": 7.92}
{"BINDER": "cyclo(PRFFDAF[dP]) [MDE3–119-4c]", "EXPERIMENTAL_VALUE": 5.89}
